Target: Transcription intermediary factor 1-alpha (Homo sapiens) (UniProt O15164)
Sequence (O15164 whole entry): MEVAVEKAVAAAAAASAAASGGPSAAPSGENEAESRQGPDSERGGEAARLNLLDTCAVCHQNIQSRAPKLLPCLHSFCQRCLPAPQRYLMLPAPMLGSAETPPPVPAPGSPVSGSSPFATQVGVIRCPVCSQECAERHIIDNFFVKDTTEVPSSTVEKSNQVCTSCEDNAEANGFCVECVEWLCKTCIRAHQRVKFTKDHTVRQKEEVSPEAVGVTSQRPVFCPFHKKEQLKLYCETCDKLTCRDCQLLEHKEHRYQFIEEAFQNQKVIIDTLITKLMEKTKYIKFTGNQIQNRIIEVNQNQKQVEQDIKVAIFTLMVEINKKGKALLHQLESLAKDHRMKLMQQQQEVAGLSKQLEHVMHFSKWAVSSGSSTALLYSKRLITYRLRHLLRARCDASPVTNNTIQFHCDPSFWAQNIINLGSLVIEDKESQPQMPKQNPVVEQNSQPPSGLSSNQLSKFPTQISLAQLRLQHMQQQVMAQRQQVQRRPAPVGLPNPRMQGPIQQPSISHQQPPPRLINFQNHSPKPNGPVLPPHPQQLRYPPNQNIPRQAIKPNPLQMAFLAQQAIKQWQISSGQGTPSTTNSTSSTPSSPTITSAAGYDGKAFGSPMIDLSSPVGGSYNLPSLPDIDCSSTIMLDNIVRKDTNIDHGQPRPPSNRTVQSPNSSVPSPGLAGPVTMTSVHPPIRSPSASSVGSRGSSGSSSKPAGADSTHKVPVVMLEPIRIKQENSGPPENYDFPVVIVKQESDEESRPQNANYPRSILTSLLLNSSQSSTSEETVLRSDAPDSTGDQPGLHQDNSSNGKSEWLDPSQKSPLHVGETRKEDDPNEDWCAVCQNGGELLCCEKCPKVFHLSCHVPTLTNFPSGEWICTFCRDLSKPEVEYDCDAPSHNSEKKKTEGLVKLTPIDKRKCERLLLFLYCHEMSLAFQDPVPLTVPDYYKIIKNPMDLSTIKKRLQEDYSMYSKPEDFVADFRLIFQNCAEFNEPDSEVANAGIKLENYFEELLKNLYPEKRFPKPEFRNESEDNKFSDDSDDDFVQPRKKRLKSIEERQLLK
Conditions: Compound concentration 20.0 uM, Protein concentration 2.0 uM, Result type QC Liability
Please enter YES where ΔTm is greater than or equal to -2 °C, and NO where it is lower.

> print(dat)
                                smiles.text  group.label
1  COc1cccc(Cn2cc(C(=O)Nc3ccc(C)c(S(=O)(=O)N4CCOCC4)c3)c(-c3ccc(C)cc3)n2)c1          YES
2  CNc1[nH]c(Nc2ccc(C(=O)N3CCOCC3)cc2OC)nc2ncc(Cl)c1-2           NO
3  CCN1CCN(Cc2ccc(Nc3ncc(F)c(-c4cc(F)c5nc(C)n(C(C)C)c5c4)n3)nc2)CC1           NO
4  COc1ccc(F)c(F)c1C(=O)c1cnc(NC2CCN(S(C)(=O)=O)CC2)nc1N          YES

I'd appreciate it if you could say whether `CC(C)C(=O)N[C@@H]1CCN(C(=O)Nc2nc3c(s2)-c2nc(-c4ccccc4Cl)ncc2CC3)C1` has ΔTm at least equal to -2 °C. NO

---

Molecular target: Transcription intermediary factor 1-alpha (Homo sapiens) (UniProt O15164)
Conditions: Compound concentration 20.0 uM, Protein concentration 2.0 uM, Result type QC Liability
Please use the following ΔTm ranges when assigning a class: low group: < -2 °C; middle group: ≥ -2 °C and < -0.5 °C; high group: ≥ -0.5 °C

For orientation, consider the following solved cases.
> print(dat)
                                   compound   group.label
1  COc1cc(C(=O)NC2CCN(C)CC2)ccc1Nc1ncc(C(F)(F)F)c(NCc2ccc(C)cc2N(C)S(C)(=O)=O)n1     low group
2  Cc1cc(Cn2c(N3CC4(CNC4)C3)nc3c(N4CCN(C)CC4)cc(Cl)cc32)cc(C)c1F  middle group
3  Cc1c(NC(=O)c2ccc(C(C)(C)C)cc2)cccc1-c1cn(C)c(=O)c(Nc2ccc(C(=O)N3CCOCC3)cc2)n1    high group
4  CC1CCN(C(=O)[C@@H](CCn2cccc2C#N)NS(=O)(=O)c2cccc3[nH]ccc23)CC1    high group
5  O=C(CNC(=O)c1ccc(-c2ccccc2)cc1)NC1CCCc2ccccc21 (stereo not drawn)    high group

Which class is correct for the following compound? `COc1c(NC(=O)c2cc3cccc(Oc4ccnc(C(=O)N5CCN(C)CC5)c4)c3n2C)cc(C(C)(C)C)cc1NS(C)(=O)=O` low group

Which class is correct for the following compound? `C[C@@H]1OCC2(CCN(c3cnc(Sc4ccnc(N)c4Cl)c(N)n3)CC2)[C@@H]1N` middle group

Which class is correct for the following compound? `CCn1c(-c2nonc2N)nc2cncc(C(=O)N3CC[C@H](N)C3)c21` middle group

Which class is correct for the following compound? `CC(C)Oc1ccc(Cc2ccc(NC3=NCCN3)cc2)cc1` high group

Which class is correct for the following compound? `O=C(Nc1ccc(Cl)c(-c2ccccn2)c1)c1cccc(COc2ccc(Br)cc2CNCCO)c1` high group

Which class is correct for the following compound? `C=CC(=O)Nc1cccc(C(=O)Nc2ccc(Nc3cc(-c4c(-c5ccc(F)cc5)nc(SC)n4C)ccn3)cc2)c1` middle group

Which class is correct for the following compound? `COc1ccccc1-c1cc(Nc2cccc(CS(N)(=O)=O)c2)ncn1` middle group

Which class is correct for the following compound? `Cc1ccc(C(=O)Nc2cc(N3CCN(C)CC3)cc(C(F)(F)F)c2)cc1-n1cc(-c2cnn(C)c2C)nn1` middle group

Which class is correct for the following compound? `C1=Cc2ccccc2C(=C2CCN(CCCCc3nnn[nH]3)CC2)c2ccccc21` high group

Which class is correct for the following compound? `COc1cc(Nc2cnc(C#N)c(O[C@H](C)CN(C)C)n2)ncc1-c1cnn(C)c1` low group

Which class is correct for the following compound? `CNC(=O)c1c[nH]c2ccc(Nc3nccc(-c4ccccn4)n3)cc12` middle group

Which class is correct for the following compound? `CN1C(=O)[C@@H](NC(=O)c2cc(Cc3ccccc3)on2)COc2ccccc21` low group

Which class is correct for the following compound? `CCCCC[C@H](O)/C=C/[C@H]1[C@H](O)CC(=O)[C@@H]1CCCCCCC(=O)O` high group

Which class is correct for the following compound? `O=C(O)/C=C/c1ccc(Cn2ccnc2)cc1` high group

Which class is correct for the following compound? `Cc1csc(S(=O)(=O)N(CC(C)C)c2cc3c(cc2OCc2ccc(C(=O)O)cc2)CCC3)n1` high group

Which class is correct for the following compound? `CC(C)(C)c1cnc(CSc2cnc(NC(=O)C3CCNCC3)s2)o1` middle group

Which class is correct for the following compound? `O=C1Nc2ccc(I)cc2/C1=C/c1cc(Br)c(O)c(Br)c1` low group

Which class is correct for the following compound? CCCCC(C)(O)C/C=C/[C@H]1[C@H](O)CC(=O)[C@@H]1CCCCCCC(=O)O (stereo partly drawn) middle group

Which class is correct for the following compound? `O=C(O)CCC/C=C\C[C@@H]1[C@@H](/C=C/[C@@H](O)COc2cccc(C(F)(F)F)c2)[C@H](O)C[C@@H]1O` middle group

Which class is correct for the following compound? `Cc1nc(Nc2cnn(C3CCNCC3)c2)nc2c1N(C)C(=O)c1cc3ccccc3cc1N2C` low group

Which class is correct for the following compound? `CC(C)NC(=O)[C@H]1CCC[C@H]1Nc1nc(Nc2ccc(CN(C)C)cc2)ncc1Br` low group

Which class is correct for the following compound? `C[C@@H]1CCNC(=O)c2cc3ccc(C(=O)Nc4nc5ccccc5n4CCCN(C)C)cc3n21` high group

Which class is correct for the following compound? `CNC(=O)c1nnc(NC(=O)C2CC2)cc1Nc1cccc(-c2ncn(C)n2)c1OC` low group

Which class is correct for the following compound? `NC(=O)c1ccccc1Nc1nc(-c2ccc(N3CCOCC3)cc2)cc2ncccc12` low group

Which class is correct for the following compound? `Fc1ccc(-c2c3cccc(C(F)(F)F)c3nn2Cc2ccc(F)cc2Cl)cc1` middle group

Which class is correct for the following compound? `COc1cc(-c2cncc(-c3cnn(C4CCNCC4)c3)c2)cc(OC)c1OC` middle group

Which class is correct for the following compound? `Cc1nc2ccc(Cl)cc2c(-c2ccccc2)c1CC(=O)O` high group

Which class is correct for the following compound? `CC[C@@H]1C(=O)N(C)c2cnc(Nc3ccc(C(=O)NC4CCN(C)CC4)cc3OC)nc2N1C1CCCC1` high group
